# Assay system: Pro-neuregulin-1, membrane-bound isoform (Homo sapiens)
# Assay summary: NRG1 binders on small-molecule microarrays, primary screen, psychiatric disease protein project, biochemical, small-molecule microarray, fluorescence 635/667 (AID 1075);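 also: score combines 667 nm spot fluorescence with signal to noise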
# Condition description: NRG1 binding, 635 nm fluorescence, higher = more signal
Recorded composite z-score values for a group of compounds are listed next.
Hey, just send me the number, nothing else.

[Q] What value of measured composite z-score is listed for `C=CCC1(CC=C)C[C@H]2CO[C@H](c3ccc(OC)cc3)N2C1=O` ?
[A] 0.0973

[Q] Using the record for `COCCOC(=O)N1C(=O)[C@@]2(c3cc(C#CCNC(N)=O)ccc31)[C@H](c1ccccc1OCCO)N1[C@H](c3ccccc3)[C@H](c3ccccc3)OC(=O)[C@H]1[C@@H]2C(=O)Nc1nc2ccccc2s1` , report its composite z-score.
[A] 0.582

[Q] // lookup composite z-score for `COCCOC(=O)N1C(=O)[C@@]2(c3ccccc31)[C@H](C(=O)Nc1nc3ccccc3s1)[C@H]1C(=O)O[C@H](c3ccccc3)[C@H](c3ccccc3)N1[C@@H]2c1ccc(O)cc1`
[A] 0.57

These data points were gathered from PubChem BioAssay.
